Value source: patent US20140221611A1

For each entry below, report its R (ratio of the ELISA score with target present to the ELISA score without target) value.
- Test Target: REFACTO® factor VIII-like polypeptide (amino acids 1-743 and 1638 through 2332 of human factor VIII) (human) (UniProt P00451)
- Sequence (P00451 20-762, chain 1 of 2): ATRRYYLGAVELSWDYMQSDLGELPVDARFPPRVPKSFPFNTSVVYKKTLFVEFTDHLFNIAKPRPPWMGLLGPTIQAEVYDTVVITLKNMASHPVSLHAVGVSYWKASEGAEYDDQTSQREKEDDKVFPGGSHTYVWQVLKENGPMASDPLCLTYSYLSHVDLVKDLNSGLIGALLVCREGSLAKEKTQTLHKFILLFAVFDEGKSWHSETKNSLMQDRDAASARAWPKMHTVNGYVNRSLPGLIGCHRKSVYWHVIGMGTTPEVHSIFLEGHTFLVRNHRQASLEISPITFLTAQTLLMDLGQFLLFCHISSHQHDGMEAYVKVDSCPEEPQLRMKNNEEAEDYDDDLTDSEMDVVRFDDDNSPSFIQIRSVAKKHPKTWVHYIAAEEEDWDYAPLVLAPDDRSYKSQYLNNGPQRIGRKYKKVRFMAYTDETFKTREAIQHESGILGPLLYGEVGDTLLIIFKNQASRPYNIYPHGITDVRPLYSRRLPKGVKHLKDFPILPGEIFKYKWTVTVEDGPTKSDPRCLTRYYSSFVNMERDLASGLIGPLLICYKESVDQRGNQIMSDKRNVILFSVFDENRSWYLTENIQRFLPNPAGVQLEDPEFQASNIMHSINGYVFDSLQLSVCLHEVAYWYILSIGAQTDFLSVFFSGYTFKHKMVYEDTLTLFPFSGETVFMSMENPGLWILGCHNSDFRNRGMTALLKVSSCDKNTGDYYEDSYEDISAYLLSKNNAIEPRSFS
- Sequence (P00451 1657-2351, chain 2 of 2): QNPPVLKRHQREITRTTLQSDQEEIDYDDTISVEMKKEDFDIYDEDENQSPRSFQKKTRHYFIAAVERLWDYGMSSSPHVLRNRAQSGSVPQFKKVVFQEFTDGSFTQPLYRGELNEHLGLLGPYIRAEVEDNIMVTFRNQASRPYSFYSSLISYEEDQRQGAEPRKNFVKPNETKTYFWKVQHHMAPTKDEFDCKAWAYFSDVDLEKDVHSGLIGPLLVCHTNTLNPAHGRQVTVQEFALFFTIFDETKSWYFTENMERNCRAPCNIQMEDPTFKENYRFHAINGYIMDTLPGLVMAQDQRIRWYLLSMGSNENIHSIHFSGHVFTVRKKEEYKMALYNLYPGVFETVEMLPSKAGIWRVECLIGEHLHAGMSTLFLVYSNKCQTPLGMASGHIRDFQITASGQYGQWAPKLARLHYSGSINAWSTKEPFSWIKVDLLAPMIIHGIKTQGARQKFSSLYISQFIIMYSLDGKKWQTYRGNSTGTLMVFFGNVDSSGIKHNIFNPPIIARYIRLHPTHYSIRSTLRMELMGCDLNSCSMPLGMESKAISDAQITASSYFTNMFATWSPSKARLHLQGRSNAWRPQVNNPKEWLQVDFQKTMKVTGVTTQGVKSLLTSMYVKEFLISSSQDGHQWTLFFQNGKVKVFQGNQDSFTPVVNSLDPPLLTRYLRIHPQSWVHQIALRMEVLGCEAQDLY
- Procedure Summary: phage ELISA

FCWVFAFDHCH [TN9/1 isolate … (SEQ ID NO: 71)] = 24
FCWVFPFHHCF [TN9 isolate 06 (phage-displayed peptide, SEQ ID NO: 30)] = 6
HLCFAWFRPCDA [TN8 isolate 12 (phage-displayed peptide, SEQ ID NO: 17)] = 8

Please look at the following binder next.
Ask: Supply reported R (ratio of the ELISA score with target present to the ELISA score without target) belonging to this binder: FCHVFNFVHCS [TN9 isolate 01 (phage-displayed peptide, SEQ ID NO: 31)]
Result: 8
